B1: Caulobacter ParB omega fusion; a variant is named by its letters at X, in order, B8GW30 (parent)
chain: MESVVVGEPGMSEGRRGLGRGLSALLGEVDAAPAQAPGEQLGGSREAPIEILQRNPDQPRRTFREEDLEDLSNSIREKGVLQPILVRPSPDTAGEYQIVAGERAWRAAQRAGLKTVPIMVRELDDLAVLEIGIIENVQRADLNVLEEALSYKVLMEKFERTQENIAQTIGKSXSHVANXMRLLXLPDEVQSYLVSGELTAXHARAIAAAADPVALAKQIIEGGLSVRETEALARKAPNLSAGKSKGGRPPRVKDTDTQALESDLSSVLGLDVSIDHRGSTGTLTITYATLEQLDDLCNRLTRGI

- Variants of: B1
- assay.explanation: one-hybrid fitness for binding NBS DNA (the Noc-binding site; scaled: cognate 1, non-cognate 0); higher = stronger binding
- details: with NBS DNA site
Whole data set: some 81,000 sequences, median “one-hybrid fitness for binding NBS DNA” near -0.1, cut for the highest 2% near 0.36. What follows is part of a selection rich in the highest values, with near analogues and random picks from the rest.
experimental.readout: one-hybrid fitness for binding NBS DNA

Here are 5 variants together with their reported answers.
NPTI : ≤ 0.2
QTFN : ≤ 0.2
QTAP : ≤ 0.2
QSMR : 0.456
QTAN : 0.217

Below are some variants; for each one, tell me its one-hybrid fitness for binding NBS DNA.
1. AEFL
2. RAIS

1: ≤ 0.2; 2: ≤ 0.2
